experiment: method code SF-HPLC, from DOI: 10.1021/jm00169a024, PMID: 2194033; conditions: pH 7.4
assay-endpoint: logD
# respond with the number and nothing more

Qu. Consider the molecule shown here: CCN1CC(C(O)C(CC2CCCCC2)NC(=O)[C@H](Cc2cnc[nH]2)NC(=O)[C@H](Cc2ccc(OC)cc2)NC(=O)N(C)CC(O)CO)OC1=O (stereo partly drawn) What is its recorded logD?
Ans. 1.42

Qu. Consider the molecule shown here: CCN1CC(C(O)C(CC2CCCCC2)NC(=O)C(Cc2cnc[nH]2)NC(=O)N(Cc2ccc(OC)cc2)C(=O)N(C)CCOCOC)OC1=O (stereo not drawn) What is its recorded logD?
Ans. 2.3

Qu. Consider the molecule shown here: `CCN1C[C@H]([C@@H](O)[C@H](CC2CCCCC2)NC(=O)[C@@H](Cc2cnc[nH]2)NC(=O)[C@@H](Cc2ccc(OC)cc2)NC(=O)N(C)CCOCOCCOC)OC1=O` What is its recorded logD?
Ans. 2.03

###

Please respond with reported logP for every item in the list.
# respond with the number and nothing more

Qu. Consider the molecule shown here: `CCSc1ccc2c(c1)N(CCCN1CCN(C)CC1)c1ccccc1S2` What is its recorded logP?
Ans. 4.82

Qu. Consider the molecule shown here: `CN1CCN(CCCN2c3ccccc3Sc3ccc(Cl)cc32)CC1` What is its recorded logP?
Ans. 4.79

Qu. Consider the molecule shown here: `OCCN1CCN(CCCN2c3ccccc3Sc3ccc(Cl)cc32)CC1` What is its recorded logP?
Ans. 4.25

Qu. Consider the molecule shown here: COc1ccc2c(c1)N(CC(C)CN(C)C)c1ccccc1S2 (stereo not given) What is its recorded logP?
Ans. 4.4

Qu. Consider the molecule shown here: CC(NCCC(c1ccccc1)c1ccccc1)c1ccccc1 (stereo not given) What is its recorded logP?
Ans. 4.89

###

assay: method code SF-AS, from PMID: 474167
assay-endpoint: logP
# respond with the number and nothing more

Qu. Consider the molecule shown here: `CC(=O)[C@@]1(O)CC[C@H]2[C@@H]3CCC4=CC(=O)CC[C@]4(C)[C@H]3CC[C@@]21C` What is its recorded logP?
Ans. 3.19

###

assay-endpoint: logP

Qu. Consider the compound shown here: `CCNc1nc(NC(C)(C)C)nc(SC)n1` What is its recorded logP?
Ans. 3.43

###

Please respond with reported logD for every item in the list.
experiment: method code SF-HPLC, from DOI: 10.1016/j.ejps.2015.05.008, PMID: 25968358; conditions: pH 7.4

Qu. Consider the molecule shown here: `c1ccc2c(c1)Nc1ccccc1S2` What is its recorded logD?
Ans. 3.97

Qu. Consider the molecule shown here: `CCCCC(=O)c1ccccc1` What is its recorded logD?
Ans. 3.03

###

settings: pH 7.4
Please respond with reported logD for every item in the list.
# respond with the number and nothing more

Qu. Consider the compound shown here: `CCCNC(=O)[C@H](O)[C@@]1(O)CC[C@H]2[C@@H]3CCC4=CC(=O)C=C[C@]4(C)[C@H]3[C@@H](O)C[C@@]21C` What is its recorded logD?
Ans. 1.43

Qu. Consider the compound shown here: `C[C@]12C=CC(=O)C=C1CC[C@@H]1[C@@H]2[C@@H](O)C[C@@]2(C)[C@H]1CC[C@]2(O)[C@@H](O)C(=O)NCc1ccccc1` What is its recorded logD?
Ans. 1.51

Qu. Consider the compound shown here: CNC(=O)C(O)C1(O)CCC2C3CCC4=CC(=O)C=CC4(C)C3C(O)CC21C (stereo not drawn) What is its recorded logD?
Ans. 1

###

assay: method code SF-AS, from DOI: 10.1248/cpb.45.1287, PMID: 9301027
assay-endpoint: logP
# respond with the number and nothing more

Qu. Consider the compound shown here: `CCOCCn1c(N2CCCN(CCCCn3cccn3)CC2)nc2ccccc21` What is its recorded logP?
Ans. 3.99

Qu. Consider the compound shown here: `CCOCCn1c(CN2CCCN(CCCCn3cccn3)CC2)nc2ccccc21` What is its recorded logP?
Ans. 4.61

###

Please respond with reported logP for every item in the list.
# respond with the number and nothing more

Qu. Consider the compound shown here: `O=C1c2c(O)cccc2C(C(=O)c2cc(O)c(O)c(O)c2)c2cccc(O)c21` What is its recorded logP?
Ans. 2.44

Qu. Consider the compound shown here: `O=C1c2c(O)cccc2C(C(=O)c2ccccc2)c2cccc(O)c21` What is its recorded logP?
Ans. 3.81

Qu. Consider the compound shown here: `O=C1c2c(O)cccc2C(C(=O)c2ccc(O)c(O)c2)c2cccc(O)c21` What is its recorded logP?
Ans. 2.79

Qu. Consider the compound shown here: `O=C1c2c(O)cccc2C(C(=O)c2ccc3c(c2)OCO3)c2cccc(O)c21` What is its recorded logP?
Ans. 3.68

Qu. Consider the compound shown here: `O=C1c2c(O)cccc2C(C(=O)c2ccc(O)cc2)c2cccc(O)c21` What is its recorded logP?
Ans. 3.11

Qu. Consider the compound shown here: `O=C1c2c(O)cccc2C(C(=O)c2ccc(OCc3ccccc3)cc2)c2cccc(O)c21` What is its recorded logP?
Ans. 4.22

###

Please respond with reported logP for every item in the list.
# respond with the number and nothing more

Qu. Consider the compound shown here: `Cc1nonc1-c1ccc(OCCCc2c[nH]cn2)cc1` What is its recorded logP?
Ans. 2.92

Qu. Consider the compound shown here: `NC(=O)c1c(-c2ccc(OCCCc3c[nH]cn3)cc2)no[n+]1[O-]` What is its recorded logP?
Ans. 1.57

###

assay: method code SF, from DOI: 10.1021/jm00140a005, PMID: 7035668; settings: pH 12.0
assay-endpoint: logD
# respond with the number and nothing more

Qu. Consider the compound shown here: `COc1cc(Cc2cnc(N)nc2N)cc(OC)c1Oc1ccc(N)cc1` What is its recorded logD?
Ans. 0.9

Qu. Consider the compound shown here: `COc1cc(Cc2cnc(N)nc2N)cc(OC)c1C` What is its recorded logD?
Ans. 2.14

###

test: method code SF-AS, from DOI: 10.1002/jps.2600650731; conditions: pH 11.5
Please respond with reported logD for every item in the list.

Qu. Consider the compound shown here: `CN(C(=N)N)/C(N)=N/c1ccc(Cl)cc1` What is its recorded logD?
Ans. 1.58

Qu. Consider the compound shown here: `CCCCCC/N=C(N)/N=C(\N)Nc1ccc(Cl)cc1` What is its recorded logD?
Ans. 1.85

Qu. Consider the compound shown here: `CCC/N=C(N)/N=C(\N)Nc1ccc(Cl)cc1` What is its recorded logD?
Ans. 2.63

###

Please respond with reported logD for every item in the list.
test: method code SF-RC, from DOI: 10.1016/j.apradiso.2010.08.010, PMID: 20843697; conditions: pH 7.4
# respond with the number and nothing more

Qu. Consider the compound shown here: `O=C(NCCN1C(=O)C=CC1=O)c1cccc(I)c1` What is its recorded logD?
Ans. 1.03

Qu. Consider the compound shown here: `O=C(NCCN1C(=O)C=CC1=O)c1cncc(I)c1` What is its recorded logD?
Ans. 0.63

###

experiment: method code SF-RC, from DOI: 10.1021/jm300199g, PMID: 22540974; details: pH 7.4
assay-endpoint: logD
# respond with the number and nothing more

Qu. Consider the compound shown here: `CC(C)[C@H](C(=O)NO)N(Cc1ccccc1)S(=O)(=O)c1ccc(OCCF)cc1` What is its recorded logD?
Ans. 2.02

###

assay: method code HPLC, from DOI: 10.1016/j.ejmech.2015.05.022, PMID: 26005028; conditions: pH 7.1
Please respond with reported logD for every item in the list.
# respond with the number and nothing more

Qu. Consider the molecule shown here: `CC(=O)OC[C@H]1O[C@@H](OC(C)=O)[C@H](NC(=O)CBr)[C@@H](OC(C)=O)[C@@H]1OC(C)=O` What is its recorded logD?
Ans. 0.23

Qu. Consider the molecule shown here: `CCCNC(=O)CBr` What is its recorded logD?
Ans. 0.91

###

experiment: method code SF-HPLC, from DOI: 10.1016/s0006-2952(00)00420-2, PMID: 10974206
Please respond with reported logP for every item in the list.
# respond with the number and nothing more

Qu. Consider the compound shown here: `CN(C)CCCNc1c2ccccc2[n+]([O-])c2cccc([N+](=O)[O-])c12` What is its recorded logP?
Ans. 3.1

Qu. Consider the compound shown here: `CN(C)CCCNc1c2ccccc2nc2cccc([N+](=O)[O-])c12` What is its recorded logP?
Ans. 3.8

Qu. Consider the compound shown here: `C[N+](C)([O-])CCCNc1c2ccccc2nc2cccc([N+](=O)[O-])c12` What is its recorded logP?
Ans. 1.4

Qu. Consider the compound shown here: `CN(C)CCCNc1c2ccccc2nc2ccccc12` What is its recorded logP?
Ans. 3.6

Qu. Consider the compound shown here: `C[N+](C)([O-])CCCNc1c2ccccc2nc2ccccc12` What is its recorded logP?
Ans. 0.4

Qu. Consider the compound shown here: `CN(C)CCCNc1c2ccccc2[n+]([O-])c2ccccc12` What is its recorded logP?
Ans. 2.5

The values you see were collected from the SangsterLogP compilation.
